# Tested On: GGTase I (substrate RhoA) (Homo sapiens, UniProt P49354+P53609)
# Method: GGTase I filter-binding assay with RhoA as substrate
# Format: biochemical
# Conditions Used: 50 μM compound; DMSO = 100%; smaller numbers indicate better inhibition; second number of pair; read-out: % activity of GGTase I for protein RhoA in the presence of the compound
Assignment: determine reported activity at 50 µM for the given compounds.
// units = %; emit number, no label

Query :: Quick one: activity at 50 µM of Cc1ccc(S(=O)(=O)N2C(c3cccc(Cl)c3)CC=C(C(=O)O)[C@@H]2c2cccc(Cl)c2)cc1 (stereo partly shown) ?
Result :: 6

Query :: What do you get for Cc1ccc([C@H]2C(C(=O)O)=CCC(c3ccc(Cl)c(Cl)c3)N2S(=O)(=O)c2ccc(C)cc2)cc1 (stereo partly shown) ?
Result :: 15.6

Query :: What do you get for Cc1ccccc1S(=O)(=O)N1[C@H](CC2CCCC2)[C@@H](SCCC(=O)OC(C)(C)C)[C@@H](C(=O)O)[C@@H]1c1ccc(Cl)cc1 ?
Result :: 7.8

Query :: What do you get for Cc1ccc(S(=O)(=O)N2[C@H](CC3CCCC3)[C@@H](SCCC(=O)OC(C)(C)C)[C@@H](C(=O)O)[C@@H]2c2cccc(Cl)c2)cc1 ?
Result :: 5.6

====

# Tested On: GGTase I (substrate K-Ras4B) (Homo sapiens, UniProt P49354+P53609)
# Method: GGTase I filter-binding assay with K-Ras4B as substrate
# Type: biochemical
# Conditions Used: 50 μM compound; DMSO = 100%; smaller numbers indicate better inhibition; first number of pair; read-out: % activity of GGTase I for protein K-Ras4B in the presence of the compound
Values of activity at 50 µM greater than or equal to 30% map to Yes; values below map to No.

Query :: Confirm if activity at 50 µM reported for the compound CCCC[C@@H]1[C@@H](Sc2ccc(OC)cc2)[C@@H](C(=O)O)[C@H](c2cccc(F)c2)N1S(=O)(=O)c1ccc(C)cc1 is 30% or above.
Result :: No

Query :: What do you get for Cc1ccccc1S(=O)(=O)N1C(c2ccc(Cl)cc2)CC=C(C(=O)O)[C@@H]1c1ccccc1F (some centres unmarked) ?
Result :: No

Query :: What do you get for C=CCS[C@H]1[C@@H](C(=O)O)[C@H](c2ccc(Cl)c(Cl)c2)N(S(=O)(=O)c2ccc(C)cc2)[C@@H]1CC1CCCC1 ?
Result :: No

Query :: What do you get for O=C(O)C1=CCC(c2ccc(Cl)cc2)N(S(=O)(=O)c2ccc(Cl)cc2)[C@H]1c1cccc(Cl)c1 (some centres unmarked) [P3-D9] ?
Result :: Yes

Query :: What do you get for CCC[C@@H]1[C@@H](Sc2ccc(OC)cc2)[C@@H](C(=O)O)[C@H](c2ccc(Cl)c(Cl)c2)N1S(=O)(=O)c1ccc(C)cc1 ?
Result :: No

====

# Tested On: GGTase I (substrate RhoA) (Homo sapiens, UniProt P49354+P53609)
# Method: GGTase I filter-binding assay with RhoA as substrate
# Assay type: biochemical
# Conditions Used: 50 μM compound; DMSO = 100%; smaller numbers indicate better inhibition; second number of pair; read-out: % activity of GGTase I for protein RhoA in the presence of the compound
Measured Attribute: activity at 50 µM

Query :: Find activity at 50 µM (GGTase I (substrate RhoA) (Homo sapiens, UniProt P49354+P53609)) for the entry CC(C)CCS[C@H]1[C@@H](C(=O)O)[C@H](c2ccc(Cl)cc2)N(S(=O)(=O)c2ccccc2)[C@@H]1C(C)C
Result :: 5.9%

Query :: What do you get for O=C(O)C1=CCC(c2ccc(Cl)cc2)N(S(=O)(=O)c2ccc(Cl)cc2)[C@H]1c1cccc(Cl)c1 (some centres unmarked) ?
Result :: 26.7%

Query :: What do you get for C=CCS[C@H]1[C@@H](C(=O)O)[C@H](c2cccc(F)c2)N(S(=O)(=O)c2ccc(C)cc2)[C@@H]1CC1CCCC1 ?
Result :: 9.7%

Query :: What do you get for C=CCS[C@H]1[C@@H](C(=O)O)[C@H](c2ccc(Cl)cc2)N(S(=O)(=O)c2ccc(C)cc2)[C@@H]1CC1CCCC1 ?
Result :: 7.7%

Query :: What do you get for Cc1ccc(S(=O)(=O)N2C(c3cccc(Br)c3)CC=C(C(=O)O)[C@@H]2c2cccc(Cl)c2)cc1 (some centres unmarked) ?
Result :: 7.9%

Query :: What do you get for Cc1ccc(S(=O)(=O)N2C(c3cccc(Cl)c3)CC=C(C(=O)O)[C@@H]2c2cccc(Br)c2)cc1 (some centres unmarked) ?
Result :: 7%

Query :: What do you get for CCC[C@@H]1[C@@H](Sc2ccc(C)cc2)[C@@H](C(=O)O)[C@H](c2cccc(F)c2)N1S(=O)(=O)c1ccc(C)cc1 ?
Result :: 4.1%

Query :: What do you get for C=CCS[C@H]1[C@@H](C(=O)O)[C@H](c2ccc(Br)cc2)N(S(=O)(=O)c2ccc(C)cc2)[C@@H]1CCC ?
Result :: 7.5%

Query :: What do you get for Cc1ccc(S(=O)(=O)N2C(c3ccc(Cl)c(Cl)c3)CC=C(C(=O)O)[C@@H]2c2cccc(C)c2)cc1 (some centres unmarked) ?
Result :: 10.3%

Query :: What do you get for Cc1ccccc1S(=O)(=O)N1[C@@H](c2ccc(Cl)cc2)C(C(=O)O)=C[C@H]1C(C)(C)C (relative stereo) ?
Result :: 5.3%

Query :: What do you get for Cc1ccccc1S(=O)(=O)N1C(c2ccc(Cl)cc2)CC=C(C(=O)O)[C@@H]1c1cccc(Br)c1 (some centres unmarked) ?
Result :: 8.8%

Query :: What do you get for Cc1ccc(S(=O)(=O)N2C(c3ccc(Cl)c(Cl)c3)CC=C(C(=O)O)[C@@H]2c2ccc(Cl)cc2)cc1 (some centres unmarked) ?
Result :: 12.1%

Query :: What do you get for Cc1ccc(S(=O)(=O)N2C(c3cccc(Br)c3)CC=C(C(=O)O)[C@@H]2c2cccc(C)c2)cc1 (some centres unmarked) ?
Result :: 14.3%

Query :: What do you get for Cc1ccccc1S(=O)(=O)N1C(c2ccc(Cl)cc2)CC=C(C(=O)O)[C@@H]1c1cccc(F)c1 (some centres unmarked) ?
Result :: 3%

Query :: What do you get for C=CCS[C@H]1[C@@H](C(=O)O)[C@H](c2ccc(C#N)cc2)N(S(=O)(=O)c2ccc(C)cc2)[C@@H]1C(C)C ?
Result :: 9.3%

Query :: What do you get for C=CCS[C@H]1[C@@H](C(=O)O)[C@H](c2ccc(C(C)C)cc2)N(S(=O)(=O)c2ccc(C)cc2)[C@@H]1CC1CCCC1 ?
Result :: 6.1%

Query :: What do you get for CCC[C@@H]1[C@@H](Sc2ccc(OC)cc2)[C@@H](C(=O)O)[C@H](c2ccc(Cl)c(Cl)c2)N1S(=O)(=O)c1ccc(C)cc1 ?
Result :: 1.1%

Query :: What do you get for CCC[C@@H]1[C@@H](SCCC(=O)OC(C)(C)C)[C@@H](C(=O)O)[C@H](c2ccc(Cl)cc2)N1S(=O)(=O)c1ccc(Cl)cc1 ?
Result :: 9.2%

Query :: What do you get for C=CCS[C@H]1[C@@H](C(=O)O)[C@H](c2ccc(Cl)c(Cl)c2)N(S(=O)(=O)c2ccc(C)cc2)[C@@H]1CCCC ?
Result :: 9.6%

Query :: What do you get for CC(C)(C)OC(=O)CCS[C@H]1[C@@H](C(=O)O)[C@H](c2ccc(Cl)cc2)N(S(=O)(=O)c2ccc(Cl)cc2)[C@@H]1CC1CCCC1 ?
Result :: 9.8%

Query :: What do you get for CC(C)(C)OC(=O)CCS[C@H]1[C@@H](C(=O)O)[C@H](c2ccc(Cl)cc2)N(S(=O)(=O)c2ccccc2)[C@@H]1CC1CCCC1 ?
Result :: 9.7%

Query :: What do you get for CCCC[C@@H]1[C@@H](Sc2ccc(OC)cc2)[C@@H](C(=O)O)[C@H](c2cccc(F)c2)N1S(=O)(=O)c1ccc(C)cc1 ?
Result :: 3.5%

Query :: What do you get for Cc1ccc(S(=O)(=O)N2C(c3cccc(Br)c3)CC=C(C(=O)O)[C@@H]2c2ccccc2)cc1 (some centres unmarked) ?
Result :: 19.4%

Data credit: patent US8093274B2
